tested on: Cirsium arvense; test: Phytotoxic activity against Cirsium arvense (Canada thistle) assessed as necrosis spot at 6 x 10^-3 M after 3 days by leaf puncture assay; format: functional, organism-based
Active and inactive are the calls of the source. The rule behind the calls is not given here.
Hello, when you answer, please use one of the following outcomes: yes (1) for active, no (0) for inactive

# compound, assigned-class
records = [
    ("CCN1C(=O)/C2=C3\\CO[C@@](OC)([C@@H](O)CCCCC[C@]21C(C)O)[C@H]3O (some centres undefined)", "no (0)"),
    ("CCN1C(=O)/C2=C3\\CO[C@@](OC)([C@@H](O)CCC[C@]21C)[C@H]3O", "yes (1)"),
    ("CCN1C(=O)/C2=C3\\CO[C@@](OC)([C@@H](O)CCCCC[C@]21C)[C@H]3O", "yes (1)"),
]

Now look at this one.
Query: Please let me know the test result on file for CO[C@]12OC/C(=C3\C(=O)N(C)CC[C@]3(C)C(=O)CCCC[C@@H]1O)[C@@H]2O .
Result: yes (1)
